Tested on: PC-9 cells (EGFR Ex19Del)
protocol.details: Potency Assay: pERK (SOS1 pERK IC50 Assay, AlphaLISA SureFire Ultra p-ERK1/2)
Format: cell-based
condition.notes: Homo sapiens; PC-9 cells (EGFR Ex19Del), 1 hour incubation, AlphaLISA p-ERK1/2; read-out: SOS1 pERK IC50
pIC50: −log10 of the molar value.
property: pIC50

Illustrative cases are given below, each with its answer.
[[record]]
compound = "C[C@@H](Nc1nc(Cl)nc2c1CN(C(=O)N1CC3CC1CN3C1COC1)C2)c1cccc(C(F)F)c1F (stereo partly shown) [Example 421]"
result = "> 6.00"

[[record]]
compound = "CC(Nc1nc(Cl)nc2c1CN(C(=O)N1CCOCC1)C2)c1cc(O)cc(C(F)(F)F)c1 (stereo not shown) [Example 40]"
result = "< 6.00"


Give its pIC50 value. Item: C[C@@H](Nc1nc(Cl)nc2c1CN(C(=O)N1CCOCC1)C2)c1cccc(C(F)(F)CN(C)C)c1 [Example 483]
< 6.00

Data request, read-out pIC50, for C[C@@H](Nc1nc(Cl)nc2c1C[C@H](N1CCOCC1)CC2)c1cc(N)cc(C(F)(F)F)c1 (single isomer, unassigned) [Example 169]
> 6.00

Need pIC50 of C[C@@H](Nc1nc(CNC2COC2)nc2c1CN(C(=O)N1CCOCC1)C2)c1cccc(C(F)F)c1F [Example 509] , thanks.
< 6.00

Query (compound): C[C@@H](Nc1nc(Cl)nc2c1CN(C(=O)C1(C#N)CNC1)C2)c1cccc(C(F)F)c1F [Example 328] ; field requested: pIC50
> 6.00

Give the measured pIC50 of C[C@@H](Nc1nc(Cl)nc2c1CN(C(=O)C1(C#N)CCC1)CC2)c1cc(N)cc(C(F)(F)F)c1 [Example 202] .
< 6.00
